assayDetails: Elimination half life in Sprague-Dawley rat at 2 m/kg, iv
Format: ADME, organism-based
conditions: in vivo, read-out: beta t1/2
observationType: half-life (min)

a. C[C@@H]1C(=O)N[C@H](Cc2ccc(F)cc2)C(=O)NCCCc2ccccc2OCCN[C@@H](C2CC2)C(=O)N1C
b. C[C@@H]1C(=O)N[C@H](Cc2ccc(F)cc2)C(=O)NCCCc2ccc(F)cc2OCCN[C@@H](C2CC2)C(=O)N1C
c. C[C@@H]1CN[C@@H](C2CC2)C(=O)N(C)[C@H](C)C(=O)N[C@H](Cc2ccc(F)cc2)C(=O)NCCCc2ccc(F)cc2O1
Sort ascending by half-life. Returns: the labels listed in the requested order.
a, b, c

* * *

targetOrSystem: Growth hormone secretagogue receptor type 1 (Homo sapiens, UniProt Q92847)
Sequence (Q92847 whole entry): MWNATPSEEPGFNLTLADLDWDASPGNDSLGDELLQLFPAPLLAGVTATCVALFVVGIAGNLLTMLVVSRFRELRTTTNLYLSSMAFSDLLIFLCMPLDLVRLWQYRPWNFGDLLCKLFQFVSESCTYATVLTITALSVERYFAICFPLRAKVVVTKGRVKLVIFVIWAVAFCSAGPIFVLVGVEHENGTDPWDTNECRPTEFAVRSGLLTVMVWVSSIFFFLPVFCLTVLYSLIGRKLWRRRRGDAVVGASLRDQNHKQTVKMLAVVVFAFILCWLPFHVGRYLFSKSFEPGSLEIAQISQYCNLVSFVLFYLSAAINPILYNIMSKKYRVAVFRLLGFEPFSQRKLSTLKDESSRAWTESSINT
assayDetails: Displacement of [125I-His9]-ghrelin from human GRLN receptor by radioligand binding assay
pKi: −log10 of the molar value.
observationType: pKi

In the examples that follow, each entry is paired with its recorded pKi.
compound	observationType	testValue
CC1COc2ccccc2CCCNC(=O)[C@@H](Cc2ccc(F)cc2)NC(=O)[C@@H](C)N(C)C(=O)[C@H](C2CC2)N1 (mixture of isomers)	pKi	8.05
C[C@@H]1CN[C@@H](C2CC2)C(=O)N(C)[C@H](C)C(=O)N[C@H](Cc2ccccc2)C(=O)NCCCc2ccccc2O1	pKi	7.47
CC(C)[C@@H]1NC[C@@H](C)Oc2ccccc2CCCNC(=O)[C@@H](Cc2ccc(F)cc2)NC(=O)[C@@H](C)N(C)C1=O	pKi	6.98
C[C@@H]1CN[C@@H](C2CC2)C(=O)N(C)[C@H](C)C(=O)N[C@H](Cc2ccc(Cl)cc2)C(=O)NCCCc2ccccc2O1	pKi	7.82
C[C@@H]1CN[C@@H](C2CC2)C(=O)N(C)[C@H](C)C(=O)N[C@H](Cc2ccc(F)cc2)C(=O)NCCCc2ccccc2O1.Cl.O [ULIMORELIN HYDROCHLORIDE]	pKi	7.80
C[C@@H]1C(=O)N[C@H](Cc2ccc(F)cc2)C(=O)NCCCc2cccc3c2O[C@@H](CC3)CN[C@@H](C2CC2)C(=O)N1C	pKi	7.72
CC[C@H](C)[C@@H]1NCCOc2ccccc2CCNC(=O)[C@@H](Cc2ccccc2)NC(=O)[C@@H](C)N(C)C1=O	pKi	6.68
Cc1ccc(C[C@H]2NC(=O)[C@@H](C)N(C)C(=O)[C@H](C3CC3)NCCOc3ccccc3CCCNC2=O)cc1	pKi	8.30
CCC[C@@H]1NCCOc2ccccc2CCCNC(=O)[C@@H](Cc2ccccc2)NC(=O)[C@H](C)N(C)C1=O	pKi	6.24
CCC[C@@H]1NCCOc2ccccc2CCCNC(=O)[C@@H](Cc2ccccc2)NC(=O)[C@@H](C)N(C)C1=O	pKi	7.80

1. CCC[C@H]1NCCOc2ccccc2CCCNC(=O)[C@@H](Cc2ccccc2)NC(=O)CN(C)C1=O
2. C[C@@H]1C(=O)N[C@H](Cc2ccc(F)cc2)C(=O)NCCCc2ccccc2O[C@@H](C)CN[C@@H](C2CC2)C(=O)N1C
Min pKi? 1 | 2 Answer by quoting the chosen item's label.
1
(1: 5.92, 2: 7.25)

I. CC[C@H](C)[C@@H]1NC[C@@H](C)Oc2ccccc2CCCNC(=O)[C@@H](Cc2ccc(F)cc2)NC(=O)[C@@H](C)N(C)C1=O
II. C[C@@H]1C(=O)N[C@H](Cc2ccc(F)cc2)C(=O)NCCCc2ccc(F)cc2OCCN[C@@H](C2CC2)C(=O)N1C
Min pKi? I | II Answer by quoting the chosen item's label.
I
(I: 7.49, II: 8.59)

P. CCC[C@@H]1NCCOc2ccccc2CCCNC(=O)[C@@H](Cc2ccccc2)NC(=O)[C@@H](C)NC1=O
Q. C[C@@H]1C(=O)N[C@H](Cc2ccccc2)C(=O)NCCCc2ccccc2OCCN[C@@H](C2CC2)C(=O)N1C
R. CC[C@H](C)[C@@H]1NCCOc2ccccc2CCCNC(=O)[C@@H](CCc2ccccc2)NC(=O)[C@@H](C)N(C)C1=O
S. CC[C@H](C)[C@@H]1NCCCC/C=C/CCNC(=O)[C@@H](Cc2ccccc2)NC(=O)[C@@H](C)N(C)C1=O (mixture of isomers)
List items by pKi in falling order. Returns: the labels listed in the requested order.
Q, R, S, P
